Cited source for all entries: patent US20230095569A1

- Tested target: T1, human Claudin18.2 (CLDN18.2) (human, UniProt P56856 1-261)
- T1 construct: the cell line is named under assay; also called human Claudine18.2; hClaudin18.2
- Assay info: FACS on CHOK1-18.2 cells
Readout type: pEC50
Expect pEC50 as a plain number equal to -log10 of the molar concentration.

Give pEC50 for the following binder: chAb11 (antibody, V domains shown) VH: EVMLVESGGDLVKPGGSLKLSCAASGFTFSRYTMSWVRQTPEKRLEWVATVSVGSGNTYYLDSVKGRFTISRDNAKNTLFLQMNSLRSEDTALYYCTRLGQTQRNAVDYWGQGTSVTVSS VL: DIVMTQSPSFLSVSAGEKVTMSCKSSQSLFNGGNQKNYLAWYQQKPGQPPKLLIYGASTRDSGVPDRFTGSGSGTDFTLTISNVQAEDLAIYFCQNDHSFPLTFGAGTKLELK
8.44
